Reference for the values: the supplement of paper PMC6555819

- Tested on: LXRb homodimer (NR concentration 270 nM)
- testProtocol: PBM binding z-score (relative to random genomic background probes); higher = stronger binding; sequences stand for … in GC…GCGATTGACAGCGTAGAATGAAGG
just bin them by PBM binding z-score: low = under -0.3, intermediate = from -0.3 up to 0.6, high = 0.6 and over

                macromoleculesequence  qualitativelabel
0  CCTATTAGTTGACCATAAGGCCAACCGAAGCTCG              high
1  GATACAGGGTCAGCTAGAGGCCAGAGTATGGAAA               low
2  TCTTGTAGATCAATTGAGGTTAAGAAAGTGCGCT      intermediate
3  CAACCTAGGTCACAGAGGTCAAAGTCCGTGCGTA              high
4  TGAATGAGGTTAAAGATCATGGAACGTGGCGTCG      intermediate
5  CGTCAAAATTCAAGGTAACGTAACAGAAAGCAGC      intermediate
6  ATCTCTAGGTAAGACTCAGTTCAGTAAAGAACGC              high
7  CAGCCTCGGTCAGGGCCAGTATAGGAGGAACGTT               low
8  GGAACGAGGGCATTCGAGATGATAGCATGGCGAT               low
9  AGAATGAGGTTATTAAGATCAAGGAATTGCGGTC      intermediate

Incoming: Hey, which category is "TCTGCTAAGTCAGTTGGTCAGCTAACGAGCTGCC" in, do you know?
Outgoing: low

Incoming: GET /class?item= "GCTATTAGTTGAAAGGGCAACAGAATGATTCTCG"
Outgoing: intermediate

Incoming: Field: class (PBM binding z-score) — entry: "GCTGCTAGGTCAGGTTGGTCAGTTAACGGGTACG"
Outgoing: intermediate

Incoming: Exercise: read the entry "GTACCAAGGTGAATAGTTCGTTGATGAGTAGGCG" and state which class it falls under.
Outgoing: intermediate

Incoming: Into which category would you place "ATCGAAAGGTCGAAGGTGATTATACCCACCCGAA" ?
Outgoing: high

Incoming: Which PBM binding z-score category applies to "ATATGTTGGTTACATCCGGGTCATTCAGGCTATG" here?
Outgoing: high

Incoming: For this sequence, which bin applies? "CGAACTAGGTCATTGCCAGGACAGTGAATAGTAA"
Outgoing: intermediate

Incoming: # bin lookup: classify "ACTCGGAGGACAAAGCTCAGAGCTACGCCAGTGA" by its PBM binding z-score
Outgoing: low

====

- Test system: LXRa:RXRa (NR concentration 270 nM, RXRa partner concentration 90 nM)
- testProtocol: PBM binding z-score (relative to random genomic background probes); higher = stronger binding; sequences stand for … in GC…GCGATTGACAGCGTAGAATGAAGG
I'd be grateful if you could share measured PBM binding z-score for these entries.
Give bare numbers.

In [3]: df
Out[3]:
                macromoleculesequence            valuekind  testvalue
0  GCTTACCGGTCAAAGGTTATAGCATGAATAGAAT  PBM binding z-score       4.56
1  TCTTGTAGGTCAGCAGGTTAAGAAAGCTGGCCAA  PBM binding z-score       2.55
2  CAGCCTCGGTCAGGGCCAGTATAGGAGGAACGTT  PBM binding z-score     -0.223

For each listed entry, give its PBM binding z-score.
1. ATATGTAGGTTATATCCGGGTCATTCAGGCTATG
2. CTCGAAAGGTCGTGCTCAGGTGAATATACCAAAC
3. TCATATAGGTAAAACAGGTGAAAGTCGGCATCTA
4. CCTAACGGGTCACGAGGTTATAGCACGACGAGCG
5. AGTCAAAGTTCAGGACGCGGTAACGTAAAGCACG
6. ACTCGCAGGCCAAGTTTGGGTCACTCAAACAAAG
7. ATCTCTAGGTAAAAGTTCTGTGAATCCCGAGGAT

Outgoing:
1: 4.34; 2: 4.19; 3: 1.1; 4: 4.05; 5: 3.44; 6: 0.222; 7: 0.216

Hi! Can you tell me PBM binding z-score for each of these sequences?
1. ATCTCTAGGGAAAGTTCAGTGAAAGATCGATAGA
2. CCTCGGAGGACAGAAGGTCAGAGCGGTCCGCTTT
3. AAAGACAGGTGAGTGAAGGTAACTCAGCTGGACG
4. AGTCAAAGTTCATTAGGTAACGTAAGATTCAGCT
5. CCTACTGGGCCATTCAGAGGTCATTGAACATATG
6. ATATGTAGGTTATCGAGTCATTCAGTTTGCGCAT
7. CGTCCAAGGTCAATGCTAGGTCAGTTAAAGCATT

Outgoing:
1: 1.28; 2: 1.8; 3: 0.399; 4: 6.16; 5: 4.42; 6: 1.1; 7: 5.46
